- procedureDetails: Acute Toxity, mouse
- experimentalContext: in vivo, po
metricName: LD50 at 168 h (mg/kg)

> print(dat)
                                   compound     metricname  assayresult
1  CCOC(=O)/C=C/C(=O)Nc1ccc(CCN2CCNC(c3ccccc3)c3ccccc3C2)cc1 (stereo not shown)  LD50 at 168 h          938

###

// values below are reported LD50 at 168 h
- procedureDetails: Acute Toxity, mouse
- experimentalContext: in vivo, ip, in abdominal cavity, 7 days
metricName: LD50 at 168 h (mg/kg)

> print(dat)
                                   compound     metricname  unitofmeasure  assayresult
1  COc1ccc(C2c3ccccc3CN(CCCC(=O)c3ccc(F)cc3)CCN2C)cc1 (stereo not drawn)  LD50 at 168 h          mg/kg          179
2  COc1ccc(CCN2CCN(C)C(c3ccc(OC)cc3)c3ccccc3C2)cc1 (stereo not drawn)  LD50 at 168 h          mg/kg          124
3  CN1CCOC(c2ccccc2)c2ccccc2C1 (stereo not drawn) [Nefopam, reference compound]  LD50 at 168 h          mg/kg         72.4
4  CN1CCN(CCCC(=O)c2ccc(F)cc2)Cc2ccccc2C1c1ccccc1 (stereo not drawn)  LD50 at 168 h          mg/kg          208
5  COc1ccc(C2NCCN(CCCC(=O)c3ccc(F)cc3)Cc3ccccc32)cc1 (stereo not drawn)  LD50 at 168 h          mg/kg          109
6  c1ccc(C2NCCN(CC3CC3)Cc3ccccc32)cc1 (stereo not drawn)  LD50 at 168 h          mg/kg         51.6
